Property: Fold change; scope: individual binders
molecular target: T1, human LAP-TGFB1 Fc fusion (human); test: BLI off-rate screen
T1 construct: also called human LAP-TGFβ1-Fc; human LAP-TGFβ-Fc isoform 1
T1 sequence (chain, as listed by the source limits assumed): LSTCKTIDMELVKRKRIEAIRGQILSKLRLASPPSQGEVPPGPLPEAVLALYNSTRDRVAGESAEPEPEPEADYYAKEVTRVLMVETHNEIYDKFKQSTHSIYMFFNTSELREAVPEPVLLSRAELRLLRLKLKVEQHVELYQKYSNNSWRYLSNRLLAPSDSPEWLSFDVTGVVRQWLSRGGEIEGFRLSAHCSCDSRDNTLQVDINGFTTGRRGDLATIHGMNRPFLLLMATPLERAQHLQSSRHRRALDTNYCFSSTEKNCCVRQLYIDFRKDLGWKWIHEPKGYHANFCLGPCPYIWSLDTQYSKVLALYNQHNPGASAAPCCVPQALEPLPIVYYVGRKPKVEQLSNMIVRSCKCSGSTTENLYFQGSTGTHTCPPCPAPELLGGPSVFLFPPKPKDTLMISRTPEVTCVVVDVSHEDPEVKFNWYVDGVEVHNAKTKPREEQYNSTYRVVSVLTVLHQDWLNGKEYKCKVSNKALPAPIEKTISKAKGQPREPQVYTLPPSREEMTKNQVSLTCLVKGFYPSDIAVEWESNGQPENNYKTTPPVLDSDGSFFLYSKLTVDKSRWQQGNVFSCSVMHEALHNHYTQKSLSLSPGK
All answers are understood in fold, so give the number only.

INSERT INTO results (binder, measurement_kind, numeric_readout) VALUES
  ('VH W95Y (88BIT) (Fab, V domains shown) VH: EVQLVQSGAEVKKPGASVKVSCKASGYTFTSYWMHWVRQAPGQGLEWMGRIDPQSGGIKYAQKFQGRATLTVDTSTSTAYMELSRLRSDDTAVYYCARYDYGGYFDVWGQGTLVTVSS VL: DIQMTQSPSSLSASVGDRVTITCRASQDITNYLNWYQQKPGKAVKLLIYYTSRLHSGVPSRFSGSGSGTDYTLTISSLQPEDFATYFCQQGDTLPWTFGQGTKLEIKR', 'Fold change', 1);

Request: Using the record for VL Q27Y (41BIT) (Fab, V domains shown) VH: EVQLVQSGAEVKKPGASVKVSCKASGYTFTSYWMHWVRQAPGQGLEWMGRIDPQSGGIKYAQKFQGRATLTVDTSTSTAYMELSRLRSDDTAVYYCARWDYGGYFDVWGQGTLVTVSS VL: DIQMTQSPSSLSASVGDRVTITCRASYDITNYLNWYQQKPGKAVKLLIYYTSRLHSGVPSRFSGSGSGTDYTLTISSLQPEDFATYFCQQGDTLPWTFGQGTKLEIKR , report its Fold change.
Result: 1.8
